- Tested on: Pseudomonas aeruginosa
- assay-protocol: Antibacterial activity against polymyxin-susceptible Pseudomonas aeruginosa FADD1-PA038 clinical isolates assessed as reduction in bacterial growth by broth microdilution method
- Type: functional
recorded-metric: MIC (µg/mL)
One number for each entry, in µg/mL.

Ask | # input compound: C/C=C1/NC(=O)[C@H](CCN)NC(=O)[C@H](CCN)NC(=O)[C@H](CC(C)C)NC(=O)[C@@H](Cc2ccccc2)NC(=O)[C@H](CCN)NC(=O)[C@@H](NC(=O)[C@H](CCN)NC(=O)[C@@H](NC(=O)[C@H](CCN)NC(=O)CCCC[C@@H](C)CC)[C@@H](C)O)CCNC1=O ; wanted: its MIC
Reply | 16
